target: CDK19/Cyclin C (Homo sapiens, UniProt Q9BWU1); experiment: NanoBRET live-cell target engagement, NanoLuc-CDK19/Cyclin C in HEK-293; settings: CDK19/C; average
Sequence (Q9BWU1 whole entry): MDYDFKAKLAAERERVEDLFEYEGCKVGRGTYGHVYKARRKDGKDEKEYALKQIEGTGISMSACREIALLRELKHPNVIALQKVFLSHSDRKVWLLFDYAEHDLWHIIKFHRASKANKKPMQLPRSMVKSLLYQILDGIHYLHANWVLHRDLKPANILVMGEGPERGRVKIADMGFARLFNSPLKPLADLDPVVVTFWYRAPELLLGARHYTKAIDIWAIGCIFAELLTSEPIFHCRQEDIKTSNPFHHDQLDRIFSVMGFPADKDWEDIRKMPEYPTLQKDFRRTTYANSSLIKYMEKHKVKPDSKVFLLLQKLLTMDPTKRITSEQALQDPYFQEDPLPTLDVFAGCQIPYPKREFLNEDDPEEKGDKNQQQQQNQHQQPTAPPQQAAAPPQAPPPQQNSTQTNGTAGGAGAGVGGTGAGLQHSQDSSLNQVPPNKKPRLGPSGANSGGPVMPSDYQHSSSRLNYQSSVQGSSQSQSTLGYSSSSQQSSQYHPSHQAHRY
Sequence (P24863 whole entry partner): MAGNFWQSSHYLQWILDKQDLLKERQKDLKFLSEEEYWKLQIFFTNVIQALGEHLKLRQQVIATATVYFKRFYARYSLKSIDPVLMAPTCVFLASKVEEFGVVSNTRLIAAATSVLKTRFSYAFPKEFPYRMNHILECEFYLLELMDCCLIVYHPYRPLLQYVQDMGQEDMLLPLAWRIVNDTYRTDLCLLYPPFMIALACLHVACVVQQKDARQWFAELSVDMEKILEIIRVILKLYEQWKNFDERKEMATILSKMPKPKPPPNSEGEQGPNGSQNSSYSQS
Could you label it 1 if measured Inhibition at 10µM (%) is 40% or higher, and 0 otherwise?

CS(=O)(=O)N1CCC(NC(=O)c2[nH]ncc2NC(=O)c2c(Cl)cccc2Cl)CC1 :: 0

Query block: Reported Inhibition at 10µM (%) reaches at least 40% for CC(C)c1c2cc(-c3ccnc(N[C@H]4CC[C@H](NC5CCOCC5)CC4)n3)ccc2nn1C ?
Result block: 1

Query block: Reported Inhibition at 10µM (%) reaches at least 40% for CN1CCC(c2c(O)cc(O)c3c(=O)cc(-c4ccccc4Cl)oc23)C1CO (stereo not drawn) ?
Result block: 1

Query block: Reported Inhibition at 10µM (%) reaches at least 40% for CC(C)c1cnn2c(NCc3ccccc3-n3cccn3)nc(OC3CCCNC3)nc12 (stereo not drawn) ?
Result block: 0

Query block: Reported Inhibition at 10µM (%) reaches at least 40% for CCn1cnc2c(Nc3cccc(Cl)c3)nc(N[C@@H]3CCCC[C@@H]3N)nc21 [CGP74514A] ?
Result block: 0

Query block: Reported Inhibition at 10µM (%) reaches at least 40% for CNc1nc(C)c(-c2nc(Nc3cccc(S(N)(=O)=O)c3)ncc2F)s1 ?
Result block: 1

---

biological target: CDK11B/Cyclin L2 (Homo sapiens); test: NanoBRET live-cell target engagement, CDK11B-NanoLuc/Cyclin L2 in HEK-293; assay type: binding; conditions: CDK11b/L2; 10µM; average of replicates
Sequence (P21127 1-782 isoform P21127-2): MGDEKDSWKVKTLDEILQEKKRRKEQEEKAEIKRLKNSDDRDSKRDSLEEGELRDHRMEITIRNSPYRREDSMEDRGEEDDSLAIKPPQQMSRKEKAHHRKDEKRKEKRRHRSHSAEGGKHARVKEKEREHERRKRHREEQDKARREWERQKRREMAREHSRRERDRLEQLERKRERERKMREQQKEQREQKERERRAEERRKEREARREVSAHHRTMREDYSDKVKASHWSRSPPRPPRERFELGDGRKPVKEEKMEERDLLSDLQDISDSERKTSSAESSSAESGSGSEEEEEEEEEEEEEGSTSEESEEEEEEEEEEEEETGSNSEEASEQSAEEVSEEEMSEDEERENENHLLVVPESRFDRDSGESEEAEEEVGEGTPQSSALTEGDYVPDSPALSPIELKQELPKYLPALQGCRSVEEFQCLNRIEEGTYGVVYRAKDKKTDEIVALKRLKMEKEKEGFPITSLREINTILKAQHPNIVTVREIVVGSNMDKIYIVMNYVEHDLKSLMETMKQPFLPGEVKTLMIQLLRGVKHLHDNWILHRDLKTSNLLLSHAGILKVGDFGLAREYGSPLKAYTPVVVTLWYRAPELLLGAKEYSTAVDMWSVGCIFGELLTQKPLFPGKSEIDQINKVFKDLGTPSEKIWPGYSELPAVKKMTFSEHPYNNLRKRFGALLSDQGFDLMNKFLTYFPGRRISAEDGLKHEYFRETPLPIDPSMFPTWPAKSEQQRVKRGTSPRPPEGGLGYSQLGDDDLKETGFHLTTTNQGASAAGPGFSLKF
Each item that follows carries a reported Inhibition at 10µM (%) Average.
Reply numerically in %, unit not repeated.

O=C(Nc1c[nH]nc1-c1ccccn1)c1nn(C2CCNCC2)cc1Cl [BDP5290] :: 2.8
CCC(CO)Nc1nc(Nc2cccc(-c3ccccn3)c2)c2ncn(C(C)C)c2n1.Cl.O [(R) - DRF053] :: 9.6
CNC1CCN(C(=O)c2ccc(Nc3ncc(F)c(-c4cnc(C)n4C(C)C)n3)cc2)C1 (stereo not shown) [AZD5597] :: 88.7

Next compound, Inhibition at 10µM (%) Average to be filled in.
Lab note: measured Inhibition at 10µM (%) Average of CC(C)c1cnn2c(NCc3ccccc3)cc(N[C@@H](CO)[C@H](O)CO)nc12 [BS-194] was 14.0

---

biological target: CDK6/Cyclin D1 (Homo sapiens, UniProt Q00534); test: NanoBRET live-cell target engagement, NanoLuc-CDK6/Cyclin D1 in HEK-293; assay type: binding; conditions: CDK6/D1; experiment 1
Sequence (Q00534 whole entry): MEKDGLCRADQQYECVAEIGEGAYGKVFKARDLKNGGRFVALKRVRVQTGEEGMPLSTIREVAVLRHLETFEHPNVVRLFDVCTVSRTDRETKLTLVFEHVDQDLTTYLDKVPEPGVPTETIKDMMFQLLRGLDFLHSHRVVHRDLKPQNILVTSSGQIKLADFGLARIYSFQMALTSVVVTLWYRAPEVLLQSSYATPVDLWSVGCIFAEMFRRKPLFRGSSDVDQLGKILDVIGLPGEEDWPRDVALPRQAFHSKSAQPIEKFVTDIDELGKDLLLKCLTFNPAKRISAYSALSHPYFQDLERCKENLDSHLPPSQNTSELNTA
Sequence (P24385 whole entry partner): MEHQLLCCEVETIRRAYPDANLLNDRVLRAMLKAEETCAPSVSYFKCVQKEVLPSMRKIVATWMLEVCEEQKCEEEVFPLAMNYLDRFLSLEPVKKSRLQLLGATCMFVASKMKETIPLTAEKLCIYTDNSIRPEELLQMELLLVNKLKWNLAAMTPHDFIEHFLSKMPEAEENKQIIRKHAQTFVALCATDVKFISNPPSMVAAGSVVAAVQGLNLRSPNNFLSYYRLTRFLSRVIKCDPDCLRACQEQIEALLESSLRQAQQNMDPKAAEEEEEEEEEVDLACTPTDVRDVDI
REPORTED_METRIC: Inhibition at 10µM (%)
Reply numerically in %, unit not repeated.

CS(=O)(=O)N1CCC(NC(=O)c2[nH]ncc2NC(=O)c2c(Cl)cccc2Cl)CC1 :: 98.6

Known value: CDK6/Cyclin D1 (Homo sapiens, UniProt Q00534) Inhibition at 10µM (%) of the compound CN1CCC(c2c(O)cc(O)c3c(=O)cc(-c4ccccc4Cl)oc23)C1CO (stereo not drawn) equals 78.3

Known value: CDK6/Cyclin D1 (Homo sapiens, UniProt Q00534) Inhibition at 10µM (%) of the compound CNc1nc(C)c(-c2nc(Nc3cccc(S(N)(=O)=O)c3)ncc2F)s1 equals 98.8

Known value: CDK6/Cyclin D1 (Homo sapiens, UniProt Q00534) Inhibition at 10µM (%) of the compound CCn1cnc2c(Nc3cccc(Cl)c3)nc(N[C@@H]3CCCC[C@@H]3N)nc21 [CGP74514A] equals 51.0

Known value: CDK6/Cyclin D1 (Homo sapiens, UniProt Q00534) Inhibition at 10µM (%) of the compound CC(C)c1c2cc(-c3ccnc(N[C@H]4CC[C@H](NC5CCOCC5)CC4)n3)ccc2nn1C equals 96.6

Known value: CDK6/Cyclin D1 (Homo sapiens, UniProt Q00534) Inhibition at 10µM (%) of the compound CC(C)c1cnn2c(NCc3ccccc3-n3cccn3)nc(OC3CCCNC3)nc12 (stereo not drawn) equals 31.4
